Data credit: patent EP1652858A1

- Assay system: HLA-A2402 (human)
- Assay protocol: competition vs labelled reference peptide
- Condition parameters: remark: other sources report otherwise
Property label: Ki (nM)

AVMGSSYGF (modifications not checked)    10
VMGSSYGF (modifications not checked)    33
NLPGCSFSI (modifications not checked)    8
SWDQMWKCL (modifications not checked)    670
